// data source = patent US9975885B2

List of IC50 tested on NL63-3CL^pro (Human coronavirus NL63 (HCoV-NL63), UniProt P0C6X5).
Sequence (P0C6X5 2940-3242 limits assumed): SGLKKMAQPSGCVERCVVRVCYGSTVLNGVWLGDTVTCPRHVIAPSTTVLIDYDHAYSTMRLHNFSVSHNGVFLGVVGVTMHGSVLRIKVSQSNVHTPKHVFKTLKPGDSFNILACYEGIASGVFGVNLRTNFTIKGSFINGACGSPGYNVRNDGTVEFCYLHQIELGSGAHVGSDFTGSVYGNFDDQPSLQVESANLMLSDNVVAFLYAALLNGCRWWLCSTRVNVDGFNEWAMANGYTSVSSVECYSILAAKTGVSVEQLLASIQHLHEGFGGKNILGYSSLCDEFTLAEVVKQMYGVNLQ
# number only, unit µM dropped from output

See these solved cases before continuing.
CC(C)(C)c1ccc(N(C(=O)c2c[nH]cn2)C(C(=O)NCc2ccccc2)c2cccnc2)cc1 (stereo not shown)
26.4
O=C(Nc1ccc(N(C(=O)Cn2nnc3ccccc32)C(C(=O)NC2CC2)c2ccsc2)cc1)C1CC1 (stereo not shown)
14.8
O=C(Nc1ccc(N(C(=O)Cn2nnc3ccccc32)C(C(=O)NCc2ccccc2)c2ccsc2)cc1)C1CC1 (stereo not shown)
3
O=C(Nc1ccc(N(C(=O)Cn2nnc3ccccc32)C(C(=O)NC2CCCC2)c2ccsc2)cc1)C1CC1 (stereo not shown)
3.7
CC(C)(C)c1ccc(N(C(=O)c2c[nH]cn2)C(C(=O)NC2CCCC2)c2cccnc2)cc1 (stereo not shown)
6.3
CC(C)NC(=O)C(c1ccsc1)N(C(=O)Cn1nnc2ccccc21)c1ccc(NC(=O)C2CC2)cc1 (stereo not shown)
8.1

// below: IC50 requested for another compound
Exam item: Looking for the measured IC50 of O=C(Nc1ccc(N(C(=O)Cn2nnc3ccccc32)C(C(=O)NCc2cccnc2)c2ccsc2)cc1)C1CC1 (stereo not shown) , can you help?
Marked response: 15.6
